Measured Bottom accompanies every entry in the list below.
- TESTED SYSTEM: T1, human G-protein-coupled receptor family C group 5 member D (GPRC5D) (human, UniProt Q9NZD1 1-345)
- T1 construct: whole, on cells; also called human GPRC5D protein
- T1 sequence (Q9NZD1 whole entry): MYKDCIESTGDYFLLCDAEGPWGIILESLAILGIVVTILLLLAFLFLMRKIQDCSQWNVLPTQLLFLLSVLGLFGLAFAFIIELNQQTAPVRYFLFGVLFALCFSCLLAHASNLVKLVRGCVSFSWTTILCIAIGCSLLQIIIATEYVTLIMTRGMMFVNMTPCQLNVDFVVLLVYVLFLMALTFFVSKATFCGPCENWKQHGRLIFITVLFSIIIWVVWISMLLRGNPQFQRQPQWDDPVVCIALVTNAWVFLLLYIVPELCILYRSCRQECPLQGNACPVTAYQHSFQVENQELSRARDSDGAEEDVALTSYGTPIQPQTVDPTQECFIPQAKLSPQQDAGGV
- ASSAY DETAILS: FACS, CHO-K1/GPRC5D
VALUE KIND: Bottom

BINDER	TEST VALUE
58-H4L1 (antibody, V domains shown, humanized 58F9G10, VH v4 x VL v1) VH: QVQLVQSGAEVKKPGASVKISCKASGYSFTGYYIHWVKQAPGQGLEWIGYISSYNAATSFNQKFKGRATFTVDTSTSTAYMEFSSLRSEDSAVYYCARTELRGPWFAYWGQGTLVTVSS VL: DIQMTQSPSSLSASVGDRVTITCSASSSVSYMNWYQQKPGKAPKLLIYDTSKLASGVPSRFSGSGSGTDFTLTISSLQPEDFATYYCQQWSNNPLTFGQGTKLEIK	4990
58-H3L3 (antibody, V domains shown, humanized 58F9G10, VH v3 x VL v3) VH: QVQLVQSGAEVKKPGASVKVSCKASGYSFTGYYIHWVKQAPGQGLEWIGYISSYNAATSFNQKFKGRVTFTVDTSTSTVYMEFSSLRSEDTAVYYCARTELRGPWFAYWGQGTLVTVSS VL: DTQLTQSPSSLSASVGDRVTMTCSASSSVSYMNWYQQKPGKAPKRLIYDTSKLASGVPSRFSGSGSGTDYTLTISSMQPEDFATYYCQQWSNNPLTFGQGTKLEIK	4020
58-H1L3 (antibody, V domains shown, humanized 58F9G10, VH v1 x VL v3) VH: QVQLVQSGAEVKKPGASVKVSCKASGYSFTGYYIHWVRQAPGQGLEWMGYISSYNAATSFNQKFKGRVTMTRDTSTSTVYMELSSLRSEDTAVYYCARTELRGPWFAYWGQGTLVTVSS VL: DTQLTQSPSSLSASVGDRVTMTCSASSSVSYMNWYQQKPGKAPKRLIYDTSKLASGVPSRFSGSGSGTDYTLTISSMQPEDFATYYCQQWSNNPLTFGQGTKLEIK	4230
58-H4L2 (antibody, V domains shown, humanized 58F9G10, VH v4 x VL v2) VH: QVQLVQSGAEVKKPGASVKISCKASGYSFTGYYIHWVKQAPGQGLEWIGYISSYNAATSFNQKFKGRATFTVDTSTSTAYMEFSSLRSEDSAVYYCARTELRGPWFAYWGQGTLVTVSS VL: DTQMTQSPSSLSASVGDRVTITCSASSSVSYMNWYQQKPGKAPKRLIYDTSKLASGVPSRFSGSGSGTDYTLTISSLQPEDFATYYCQQWSNNPLTFGQGTKLEIK	4600
58-H1L2 (antibody, V domains shown, humanized 58F9G10, VH v1 x VL v2) VH: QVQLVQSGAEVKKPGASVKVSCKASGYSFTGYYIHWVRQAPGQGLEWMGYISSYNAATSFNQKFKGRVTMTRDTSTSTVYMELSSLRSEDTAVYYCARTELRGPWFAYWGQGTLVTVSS VL: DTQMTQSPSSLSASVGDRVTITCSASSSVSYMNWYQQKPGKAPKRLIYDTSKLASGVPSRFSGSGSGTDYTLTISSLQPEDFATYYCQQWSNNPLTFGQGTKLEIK	5500
